Tested on: mice (strain: CD1)
Method notes: Locomotor action in the treadmill experiment
Format: in vivo
Condition details: oral
Endpoint: Reduction of the total distance run by 1 mg/kg (%)

Sample smiles	Target or system	Readout number
N#Cc1c(SCc2csc(-c3ccc(Cl)cc3)n2)nc(N2CCCCC2)c(C#N)c1-c1ccc(OCCO)cc1	mice (strain: CD1)	0

(P) N#Cc1c(NCCF)nc(SCc2csc(-c3ccc(Cl)cc3)n2)c(C#N)c1-c1ccc(OCCO)cc1
(Q) N#Cc1c(SCc2csc(-c3ccc(Cl)cc3)n2)nc(N2CCCC2)c(C#N)c1-c1ccc(OCCO)cc1
(R) COCCN(C)c1nc(SCc2csc(-c3ccc(Cl)cc3)n2)c(C#N)c(-c2ccc(OCCO)cc2)c1C#N
Prompt: Rank descending by Reduction of the total distance run by 1 mg/kg. I would appreciate it if you listed the labels in the requested order.
Completion: P, R, Q

---

Target or system: adenosine A2b receptor (Homo sapiens, UniProt P29275)
Sequence (P29275 1-332): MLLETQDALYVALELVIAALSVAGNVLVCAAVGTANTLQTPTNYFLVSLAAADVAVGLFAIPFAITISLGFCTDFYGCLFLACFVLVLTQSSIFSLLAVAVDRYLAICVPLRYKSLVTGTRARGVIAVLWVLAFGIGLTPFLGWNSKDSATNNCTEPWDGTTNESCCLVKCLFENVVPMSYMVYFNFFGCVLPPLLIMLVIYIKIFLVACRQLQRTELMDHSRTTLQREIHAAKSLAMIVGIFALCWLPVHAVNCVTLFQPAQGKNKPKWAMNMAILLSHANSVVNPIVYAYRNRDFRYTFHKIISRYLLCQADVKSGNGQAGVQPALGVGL
Method notes: Indirect determination of adenosine agonism by gene expression (luciferase), A2b cells
Condition details: CHO cells, luciferase readout
Endpoint: EC50 (nM)

Sample smiles	Result unit	EC50
N#Cc1c(NC2CC2)nc(SCc2csc(-c3ccc(Cl)cc3)n2)c(C#N)c1-c1ccc(OCCO)cc1	nM	231
N#Cc1c(SCc2csc(-c3ccc(Cl)cc3)n2)nc(N2CCCC2)c(C#N)c1-c1ccc(OCCO)cc1	nM	80
COC1CCN(c2nc(SCc3csc(-c4ccc(Cl)cc4)n3)c(C#N)c(-c3ccc(OCCO)cc3)c2C#N)CC1	nM	675
CCN(C)c1nc(SCc2csc(-c3ccc(Cl)cc3)n2)c(C#N)c(-c2ccc(OCCO)cc2)c1C#N	nM	150
CCNc1nc(SCc2csc(-c3ccc(Cl)cc3)n2)c(C#N)c(-c2ccc(OCCO)cc2)c1C#N	nM	138

(P) N#Cc1c(SCc2csc(-c3ccc(Cl)cc3)n2)nc(N2CCC(F)(F)C2)c(C#N)c1-c1ccc(OCCO)cc1
(Q) N#Cc1c(SCc2csc(-c3ccc(Cl)cc3)n2)nc(N2CCOCC2)c(C#N)c1-c1ccc(OCCO)cc1
Prompt: Higher EC50 between P and Q ? Which one? Tell me its label.
Completion: P

---

Method notes: Stability in buffer at various pH values
Assay type: physicochemical
Condition details: pH 7.4, 37° C.
Counter-ions that a name gives are not always drawn.
Endpoint: % test substance after 24 h (F(t = 24 h) × 100/F(t = 0 h)) (%)

(P) CCCNc1nc(SCc2csc(-c3ccc(Cl)cc3)n2)c(C#N)c(-c2ccc(OCCOC(=O)[C@H](C)NC(=O)[C@@H](N)CCCCN)cc2)c1C#N [Example 54, bis(trifluoroacetate)]
(Q) CC[C@H](C)[C@H](N)C(=O)N[C@@H](C)C(=O)OCCOc1ccc(-c2c(C#N)c(SCc3csc(-c4ccc(Cl)cc4)n3)nc(N3CCCC3)c2C#N)cc1 [Example 63, hydrochloride]
(R) C[C@H](N)C(=O)N[C@@H](C)C(=O)OCCOc1ccc(-c2c(C#N)c(SCc3csc(-c4ccc(Cl)cc4)n3)nc(N3CCCC3)c2C#N)cc1 [Example 44, hydrochloride]
Prompt: Could you list the above compounds by % test substance after 24 h (F(t = 24 h) × 100/F(t = 0 h)), going from the biggest number down? I would appreciate it if you listed the labels in the requested order.
Completion: Q, R, P

(I) N#Cc1c(SCc2csc(-c3ccc(Cl)cc3)n2)nc(N2CCCC2)c(C#N)c1-c1ccc(OCCOC(=O)[C@@H](N)CCCN)cc1 [Example 59, bis(trifluoroacetate)]
(II) N#Cc1c(SCc2csc(-c3ccc(Cl)cc3)n2)nc(N2CCCC2)c(C#N)c1-c1ccc(OCCOC(=O)CCN)cc1 [Example 50, trifluoroacetate]
Prompt: Higher % test substance after 24 h (F(t = 24 h) × 100/F(t = 0 h)) between I and II ? Which one? Tell me its label.
Completion: II
